Reference source: patent US5238936A

System: line DC-3F/AD
Assay: Cytotoxicity (Microculture Tetrazolium Assay): reversal of resistance to actinomycin D, line DC-3F/AD
Format: cell-based, Chinese hamster
Settings: 1 μM compound, 4 days
Doc: threshold 50 (exclusive). Items with Reversion factors (cytotoxicity) with the line DC-3F/AD beneath it return met; others return not met.

                                   compound    class
0  C=CCNc1nc(NCC=C)nc(NCC2CCN(C3c4ccccc4CCc4ccccc43)CC2)n1      met
1  CNc1nc(NC)nc(N2CCC(NCC3c4ccccc4CCc4ccccc43)CC2)n1      met
2  C=CCNc1nc(NCCC)nc(N2CCC(NCC3c4ccccc4CCc4ccccc43)CC2)n1  not met
3  C=CCNc1nc(NCC=C)nc(N2CCC(NC3c4ccccc4CCc4ccccc43)CC2)n1  not met
4  C=CCNc1nc(NCC=C)nc(N2CCC(NCC3c4ccccc4CCCc4ccccc43)CC2)n1  not met
5  C=CCNc1nc(NCC=C)nc(N2CCC(NCC3c4ccccc4CCc4cc(OC)ccc43)CC2)n1 (racemic)  not met
6  C=CCNc1nc(NCC=C)nc(N2CCC(NCC3c4ccccc4C=Cc4ccccc43)CC2)n1      met
7  C=CCNc1nc(NCC=C)nc(N2CCC(CNC3c4ccccc4CCc4ccccc43)CC2)n1      met
8  C=CCNc1nc(NC)nc(N2CCC(NCC3c4ccccc4COc4ccccc43)CC2)n1 (racemic)      met
9  C=CCNc1nc(NCC=C)nc(N2CCC(NCC3c4ccccc4N(C)S(=O)(=O)c4cc(Cl)ccc43)CC2)n1 (racemic)      met

* * *

System: line DC-3F/AD
Assay: Cytotoxicity (Microculture Tetrazolium Assay): reversal of resistance to actinomycin D, line DC-3F/AD
Type: cell-based, Chinese hamster
Conditions: 5 μM compound, 4 days
metric: Reversion factors (cytotoxicity) with the line DC-3F/AD

>>> df
                                   compound  result_number
0  C=CCNc1nc(NCC=C)nc(N2CCN(CC3c4ccccc4CCc4ccccc43)CC2)n1 [Example 25]            464
1  C=CCNc1nc(NCC=C)nc(NCC(O)CN2CCC(NC3c4ccccc4CCc4ccccc43)CC2)n1 (stereo not drawn) [Example 16]            1.8
2  C=CCNc1nc(NC)nc(N2CCC(NCC3c4ccccc4COc4ccccc43)CC2)n1 (racemic) [Example 28]          600.4
